tested on: TC-32; experiment: Reduction in CCK gene expression in human TC32 cells at GI50 level after 6 hrs by qRT-PCR method; assay type: functional, cell-based
Calls of active or inactive are those of the source. The calls are words filed in the database; no cut-off is given here.
REPORTED METRIC: Activity

COC(=O)[C@H](Cc1ccccc1)NC(=O)[C@@H](OC)[C@@H]1Cc2cc3cc(O[C@H]4C[C@@H](O[C@H]5C[C@@H](O)[C@H](O)[C@@H](C)O5)[C@H](O)[C@@H](C)O4)c(C)c(O)c3c(O)c2C(=O)[C@H]1O[C@H]1C[C@@H](O[C@H]2C[C@@H](O[C@H]3C[C@](C)(O)[C@H](O)[C@@H](C)O3)[C@@H](O)[C@@H](C)O2)[C@H](O)[C@@H](C)O1
inactive
CO[C@H](C(=O)[C@@H](O)[C@@H](C)O)[C@@H]1Cc2cc3cc(O[C@H]4C[C@@H](O[C@H]5C[C@@H](O)[C@H](O)[C@@H](C)O5)[C@H](O)[C@@H](C)O4)c(C)c(O)c3c(O)c2C(=O)[C@H]1O[C@H]1C[C@@H](O[C@H]2C[C@@H](O[C@H]3C[C@](C)(O)[C@H](O)[C@@H](C)O3)[C@@H](O)[C@@H](C)O2)[C@H](O)[C@@H](C)O1
inactive
COC(=O)[C@H](Cc1ccccc1)NC(=O)[C@H](Cc1c[nH]c2ccccc12)NC(=O)[C@@H](OC)[C@@H]1Cc2cc3cc(O[C@H]4C[C@@H](O[C@H]5C[C@@H](O)[C@H](O)[C@@H](C)O5)[C@H](O)[C@@H](C)O4)c(C)c(O)c3c(O)c2C(=O)[C@H]1O[C@H]1C[C@@H](O[C@H]2C[C@@H](O[C@H]3C[C@](C)(O)[C@H](O)[C@@H](C)O3)[C@@H](O)[C@@H](C)O2)[C@H](O)[C@@H](C)O1
inactive
